Origin of values: ChEMBL document CHEMBL3885881

Examples of compounds with documented LIPASE follow.
Species on record: Rattus norvegicus
experiment.description: DrugMatrix - Regimen: Daily Repeat
Type: toxicity, organism-based, Sprague-Dawley
Design: regimen Daily Repeat, gender Male, age 6-8 weeks
assay.setup: in vivo, po, 0 mg/kg, 120 h, tissue Plasma, route oral GAVAGE, dose level Control, time 5 day, […]

- compound: "c1ccc2[nH]c(-c3cscn3)nc2c1 [THIABENDAZOLE]"
  LIPASE: "10 u/L"
- compound: "COc1ccc2c(c1)c(CC(=O)OCC(=O)O)c(C)n2C(=O)c1ccc(Cl)cc1 [ACEMETACIN]"
  LIPASE: "9.33 u/L"
- compound: "C=CCN [ALLYLAMINE]"
  LIPASE: "10.67 u/L"
- compound: "CCCC[C@@H](CC)COC(=O)c1ccccc1C(=O)OC[C@@H](CC)CCCC [BIS(2-ETHYLHEXYL)PHTHALATE]"
  LIPASE: "10 u/L"
- compound: "Oc1c(Cl)cc(Cl)cc1Sc1cc(Cl)cc(Cl)c1O [BITHIONOL]"
  LIPASE: "85.83 u/L"
- compound: "CN(C)CCCC1(c2ccc(F)cc2)OCc2cc(C#N)ccc21 (centres undefined) [CITALOPRAM]"
  LIPASE: "10.5 u/L"
- compound: "CC(=O)[C@H]1CC[C@H]2[C@@H]3CCC4=CC(=O)CC[C@]4(C)[C@H]3CC[C@]12C [PROGESTERONE]"
  LIPASE: "10.5 u/L"
- compound: "CC(C)n1c(/C=C/C(O)CC(O)CC(=O)O)c(-c2ccc(F)cc2)c2ccccc21 (centres undefined) [FLUVASTATIN]"
  LIPASE: "85.83 u/L"
- compound: "COCc1c(C(C)C)nc(C(C)C)c(/C=C/[C@@H](O)C[C@@H](O)CC(=O)O)c1-c1ccc(F)cc1 [CERIVASTATIN]"
  LIPASE: "10.83 u/L"
- compound: "CC1=C(/C=C/C(C)=C/C=C/C(C)=C\\C(=O)O)C(C)(C)CCC1 [ISOTRETINOIN]"
  LIPASE: "9.5 u/L"
- compound: "CSc1ccc2c(c1)N(CCC1CCCCN1C)c1ccccc1S2 (centres undefined) [THIORIDAZINE]"
  LIPASE: "10.83 u/L"
- compound: "CCCCCCCCCc1ccc(O)cc1 [4-NONYLPHENOL]"
  LIPASE: "10.83 u/L"
- compound: "Cn1cnc([N+](=O)[O-])c1Sc1ncnc2nc[nH]c12 [AZATHIOPRINE]"
  LIPASE: "11.33 u/L"
- compound: "COC1=CC(=O)C[C@@H](C)[C@]12Oc1c(Cl)c(OC)cc(OC)c1C2=O [GRISEOFULVIN]"
  LIPASE: "10.17 u/L"

====

Species: Rattus norvegicus
Assay type: toxicity, organism-based, Sprague-Dawley
assay.setup: in vivo, po, 40 mg/kg, 24 h, tissue Blood, route oral GAVAGE, dose level Low, time 1 day, […]
Description: DrugMatrix - Regimen: Single

- structure: "C=CCN"
  readout.unit: "cells/µL"
  ABSOLUTE MONOCYTE: 190

====

Species: Rattus norvegicus
experiment.description: DrugMatrix - Regimen: Daily Repeat
Assay type: toxicity, organism-based, Sprague-Dawley
Design: regimen Daily Repeat, gender Male, age 6-8 weeks
assay.setup: in vivo, po, 0 mg/kg, 120 h, tissue Blood, route oral GAVAGE, dose level Control, time 5 day, vehicle .5 % CMC
A collection of molecules and their measured MEAN CORPUSCULAR HEMOGLOBIN CONCENTRATION
quantity.name: MEAN CORPUSCULAR HEMOGLOBIN CONCENTRATION (G/DL)

- molecule: "CCc1cccc2c3c([nH]c12)C(CC)(CC(=O)O)OCC3 (centres undefined)"
  readout.unit: "G/DL"
  obs.value: 31.52
- molecule: "CCc1ccc(C(=O)C(C)CN2CCCCC2)cc1 (centres undefined)"
  readout.unit: "G/DL"
  obs.value: 38.03
- molecule: "CCC[C@@H]1C[C@@H](C(=O)N[C@@H]([C@H]2O[C@H](SC)[C@H](O)[C@@H](O)[C@H]2O)[C@@H](C)O)N(C)C1"
  readout.unit: "G/DL"
  obs.value: 40.43
- molecule: "O=C1CCc2cc(OCCCCc3nnnn3C3CCCCC3)ccc2N1"
  readout.unit: "G/DL"
  obs.value: 31.02
- molecule: "CC[C@H]1OC(=O)[C@H](C)[C@@H](O[C@H]2C[C@@](C)(OC)[C@@H](O)[C@H](C)O2)[C@H](C)[C@@H](O[C@@H]2O[C@H](C)C[C@H](N(C)C)[C@H]2O)[C@](C)(O)C[C@@H](C)/C(=N\\OCOCCOC)[C@H](C)[C@@H](O)[C@]1(C)O"
  readout.unit: "G/DL"
  obs.value: 31.52
- molecule: "C[C@]12CCC(=O)C=C1CC[C@@H]1[C@@H]2C(=O)C[C@@]2(C)[C@H]1CC[C@]2(O)C(=O)CO"
  readout.unit: "G/DL"
  obs.value: 31.52
- molecule: "COC(=O)c1ccc(O)cc1"
  readout.unit: "G/DL"
  obs.value: 39.55
- molecule: "CN1C(C(=O)Nc2ccccn2)=C(O)c2ccccc2S1(=O)=O"
  readout.unit: "G/DL"
  obs.value: 38.25
- molecule: "Brc1ccccc1"
  readout.unit: "G/DL"
  obs.value: 38.18

====

Species on record: Rattus norvegicus
experiment.description: DrugMatrix - Regimen: Daily Repeat
Type: toxicity, organism-based, Sprague-Dawley
Design: regimen Daily Repeat, gender Male, age 6-8 weeks
assay.setup: in vivo, po, 0 mg/kg, 72 h, tissue Plasma, route oral GAVAGE, dose level Control, time 3 day, vehicle 100 % WATER
quantity.name: CREATININE (mg/dL)

- compound: "CC(C)(S)[C@@H](N)C(=O)O [PENICILLAMINE]"
  obs.value: 0.12
- compound: "COc1cc2c(N3CCN(C(=O)Nc4ccc(OC(C)C)cc4)CC3)ncnc2cc1OCCCN1CCCCC1 [TANDUTINIB]"
  obs.value: 0.68
- compound: "CNCCC=C1c2ccccc2CCc2ccccc21 [NORTRIPTYLINE]"
  obs.value: 0.15
- compound: "CN1CCN(C(=O)OC2c3nccnc3C(=O)N2c2ccc(Cl)cn2)CC1 (stereo unspecified) [ZOPICLONE]"
  obs.value: 0.18
- compound: "CC1COc2c(N3CCN(C)CC3)c(F)cc3c(=O)c(C(=O)O)cn1c23 (stereo unspecified) [OFLOXACIN]"
  obs.value: 0.22
- compound: "Cc1cc(NS(=O)(=O)c2ccc(N)cc2)no1 [SULFAMETHOXAZOLE]"
  obs.value: 0.18
- compound: "NNC(=O)c1ccncc1 [ISONIAZID]"
  obs.value: 0.29
- compound: "O=C1NC(=O)C(c2ccccc2)(c2ccccc2)N1 [PHENYTOIN]"
  obs.value: 0.15
- compound: "Cn1cnc([N+](=O)[O-])c1Sc1ncnc2nc[nH]c12 [AZATHIOPRINE]"
  obs.value: 0.21
- compound: "Fc1ccc([C@@H]2CCNC[C@H]2COc2ccc3c(c2)OCO3)cc1 [PAROXETINE]"
  obs.value: 0.17
- compound: "COc1ccc(C(CN(C)C)C2(O)CCCCC2)cc1 (stereo unspecified) [VENLAFAXINE]"
  obs.value: 0.18
- compound: "Clc1ccc(C(c2ccccc2Cl)C(Cl)Cl)cc1 (stereo unspecified) [MITOTANE]"
  obs.value: 0.18
- compound: "CC(CCc1ccccc1)NCC(O)c1ccc(O)c(C(N)=O)c1 (stereo unspecified) [LABETALOL]"
  obs.value: 0.17
- compound: "COc1cccc(C2(O)CCCCC2CN(C)C)c1 (stereo unspecified) [TRAMADOL]"
  obs.value: 0.17
- compound: "CN1CCC[C@H]1c1cccnc1 [NICOTINE]"
  obs.value: 0.22
- compound: "NCC1(CC(=O)O)CCCCC1 [GABAPENTIN]"
  obs.value: 0.15

====

Species on record: Rattus norvegicus
experiment.description: DrugMatrix - Regimen: Daily Repeat
Format: toxicity, organism-based, Sprague-Dawley
Parameters: regimen Daily Repeat, gender Male, age 6-8 weeks
assay.setup: in vivo, po, 0 mg/kg, 72 h, tissue Plasma, route oral GAVAGE, dose level Control, time 3 day, vehicle .5 % CMC

- compound: "COC(=O)c1ccc(O)cc1"
  readout.unit: "MEQ/L"
  POTASSIUM: 6.91
- compound: "CCc1cccc2c3c([nH]c12)C(CC)(CC(=O)O)OCC3 (stereo not drawn)"
  readout.unit: "MEQ/L"
  POTASSIUM: 7.03
- compound: "CC1(C)[C@H]2CC[C@]1(C)C(=O)C2 [(-)-CAMPHOR]"
  readout.unit: "MEQ/L"
  POTASSIUM: 6.33

====

Species: Rattus norvegicus
experiment.description: DrugMatrix - Regimen: Daily Repeat
Type: toxicity, organism-based, Sprague-Dawley
Parameters: regimen Daily Repeat, gender Male, age 6-8 weeks
assay.setup: in vivo, po, 0 mg/kg, 120 h, tissue Plasma, route oral GAVAGE, dose level Control, time 5 day, vehicle 100 % WATER
CREATINE PHOSPHOKINASE reference

- compound: "CN1CCC[C@H]1c1cccnc1"
  CREATINE PHOSPHOKINASE / u/L: 771.33
- compound: "Fc1ccc([C@@H]2CCNC[C@H]2COc2ccc3c(c2)OCO3)cc1"
  CREATINE PHOSPHOKINASE / u/L: 237.17
- compound: "O=C1NC(=O)C(c2ccccc2)(c2ccccc2)N1"
  CREATINE PHOSPHOKINASE / u/L: 323.17
- compound: "Cn1cnc([N+](=O)[O-])c1Sc1ncnc2nc[nH]c12"
  CREATINE PHOSPHOKINASE / u/L: 266.5
- compound: "CC1(C)S[C@@H]2[C@H](NC(=O)[C@H](N)c3ccc(O)cc3)C(=O)N2[C@H]1C(=O)O"
  CREATINE PHOSPHOKINASE / u/L: 363.67
- compound: "COc1cccc(C2(O)CCCCC2CN(C)C)c1 (stereo not given)"
  CREATINE PHOSPHOKINASE / u/L: 237.17
- compound: "Clc1ccc(C(c2ccccc2Cl)C(Cl)Cl)cc1 (stereo not given)"
  CREATINE PHOSPHOKINASE / u/L: 268.33
- compound: "CC(C)(S)[C@@H](N)C(=O)O"
  CREATINE PHOSPHOKINASE / u/L: 253.33
- compound: "CNCCC=C1c2ccccc2CCc2ccccc21"
  CREATINE PHOSPHOKINASE / u/L: 323.17
- compound: "NC(=O)c1ncn([C@@H]2O[C@H](CO)[C@@H](O)[C@H]2O)n1"
  CREATINE PHOSPHOKINASE / u/L: 441.5
